Target: UniProt Q8TDU6
Sequence (Q8TDU6 1-330): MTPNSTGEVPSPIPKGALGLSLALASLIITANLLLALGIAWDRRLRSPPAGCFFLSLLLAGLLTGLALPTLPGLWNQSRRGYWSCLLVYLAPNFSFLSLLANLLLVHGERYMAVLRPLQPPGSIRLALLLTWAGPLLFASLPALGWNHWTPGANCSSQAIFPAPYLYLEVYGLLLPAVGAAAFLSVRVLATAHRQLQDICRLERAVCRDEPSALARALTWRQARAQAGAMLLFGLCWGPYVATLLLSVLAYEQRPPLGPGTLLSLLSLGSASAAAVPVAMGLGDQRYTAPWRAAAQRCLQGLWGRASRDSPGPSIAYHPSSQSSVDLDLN
Assay: TGR5 activity: intracellular cAMP levels, NCI-H716 cells (HTR-FRET)
Assay type: cell-based
Set-up: endogenous in cells; host or cells: NCI-H716
Details: 1 h; NCI-H716 cells; Ref. LCA 100% at 10 μM; read-out: TGR5 (NCI-H716) Efficacy
property: Emax (%)

>  <compound>
CC[C@@H]1C2C[C@H](O)CC[C@]2(C)C2CC[C@@]3(C)C(CC[C@@H]3[C@H](C)Cc3nn[nH]n3)C2[C@@H]1O (stereo partly drawn)

>  <units_text>
%

>  <assay_result>
84

$$$$
>  <compound>
CC[C@H]1[C@@H](O)C2C3CC[C@H]([C@H](C)CC(=O)NCCOS(=O)(=O)[O-])[C@@]3(C)CCC2[C@@]2(C)CC[C@@H](O)C[C@@H]12.[Na+] (stereo partly drawn)

>  <units_text>
%

>  <assay_result>
127

$$$$
>  <compound>
CC[C@H]1[C@@H](O)C2C3CC[C@H]([C@H](C)CC(F)(F)C(=O)O)[C@@]3(C)CCC2[C@@]2(C)CC[C@@H](O)C[C@@H]12 (stereo partly drawn)

>  <units_text>
%

>  <assay_result>
125

$$$$
